target: human NaV subtype, like NaV 1.7 (Homo sapiens, UniProt Q15858)
Sequence (Q15858 whole entry): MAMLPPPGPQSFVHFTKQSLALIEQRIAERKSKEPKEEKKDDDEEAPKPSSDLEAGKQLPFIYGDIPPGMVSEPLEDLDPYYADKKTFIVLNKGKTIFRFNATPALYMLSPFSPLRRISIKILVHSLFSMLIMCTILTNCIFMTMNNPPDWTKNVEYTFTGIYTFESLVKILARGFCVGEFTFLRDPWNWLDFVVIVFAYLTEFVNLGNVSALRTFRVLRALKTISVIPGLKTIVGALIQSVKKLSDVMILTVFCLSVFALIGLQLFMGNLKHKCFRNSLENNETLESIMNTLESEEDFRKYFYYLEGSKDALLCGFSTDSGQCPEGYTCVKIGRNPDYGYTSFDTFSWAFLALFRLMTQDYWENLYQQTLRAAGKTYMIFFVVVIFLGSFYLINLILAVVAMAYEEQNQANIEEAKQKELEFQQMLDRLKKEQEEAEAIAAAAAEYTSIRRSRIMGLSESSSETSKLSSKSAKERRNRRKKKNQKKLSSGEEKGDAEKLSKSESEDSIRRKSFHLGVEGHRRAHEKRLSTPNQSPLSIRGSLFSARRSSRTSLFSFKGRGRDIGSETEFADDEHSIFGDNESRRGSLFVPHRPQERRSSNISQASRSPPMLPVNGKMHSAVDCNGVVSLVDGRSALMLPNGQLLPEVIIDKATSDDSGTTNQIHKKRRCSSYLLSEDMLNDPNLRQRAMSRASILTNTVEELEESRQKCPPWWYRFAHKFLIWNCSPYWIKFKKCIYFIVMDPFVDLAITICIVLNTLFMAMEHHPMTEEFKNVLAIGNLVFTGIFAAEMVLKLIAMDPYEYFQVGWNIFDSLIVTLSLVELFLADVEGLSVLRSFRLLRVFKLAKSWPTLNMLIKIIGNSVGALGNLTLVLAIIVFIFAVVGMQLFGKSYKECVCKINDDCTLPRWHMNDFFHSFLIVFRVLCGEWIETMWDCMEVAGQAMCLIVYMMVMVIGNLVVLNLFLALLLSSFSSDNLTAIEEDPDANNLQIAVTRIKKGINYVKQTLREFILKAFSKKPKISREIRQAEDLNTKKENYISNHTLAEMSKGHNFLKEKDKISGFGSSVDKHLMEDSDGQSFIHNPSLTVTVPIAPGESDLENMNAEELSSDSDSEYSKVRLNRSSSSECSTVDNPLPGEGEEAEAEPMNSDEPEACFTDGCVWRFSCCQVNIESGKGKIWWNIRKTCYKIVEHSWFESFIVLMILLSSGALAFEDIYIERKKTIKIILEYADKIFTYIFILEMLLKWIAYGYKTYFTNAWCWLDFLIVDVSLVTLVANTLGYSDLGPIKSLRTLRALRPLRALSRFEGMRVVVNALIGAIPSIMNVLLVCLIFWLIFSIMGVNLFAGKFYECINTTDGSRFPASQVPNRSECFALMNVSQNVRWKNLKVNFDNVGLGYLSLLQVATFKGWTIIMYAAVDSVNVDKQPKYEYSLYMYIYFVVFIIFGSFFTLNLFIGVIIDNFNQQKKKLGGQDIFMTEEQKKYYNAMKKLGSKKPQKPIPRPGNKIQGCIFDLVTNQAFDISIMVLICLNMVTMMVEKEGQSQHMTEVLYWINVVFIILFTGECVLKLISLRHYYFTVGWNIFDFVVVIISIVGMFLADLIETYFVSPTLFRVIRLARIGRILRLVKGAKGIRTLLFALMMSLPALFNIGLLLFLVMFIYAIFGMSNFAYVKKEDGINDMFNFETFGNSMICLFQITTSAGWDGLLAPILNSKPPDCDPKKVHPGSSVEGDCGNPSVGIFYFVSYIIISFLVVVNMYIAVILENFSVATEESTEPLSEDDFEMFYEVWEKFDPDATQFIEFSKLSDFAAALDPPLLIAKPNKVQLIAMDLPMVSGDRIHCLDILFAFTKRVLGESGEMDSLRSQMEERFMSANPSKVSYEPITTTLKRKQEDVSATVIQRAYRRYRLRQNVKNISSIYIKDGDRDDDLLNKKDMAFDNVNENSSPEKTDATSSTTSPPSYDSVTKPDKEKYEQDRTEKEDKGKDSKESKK
protocol_summary: E-VIPR optical membrane potential assay with electrical stimulation
Assay type: cell-based
settings: active against one or more sodium channels; assay and NaV subtype not specified for Table 3; read-out: IC50 Binned Activity Data
The compounds listed here are annotated with their IC50.
observed_property: IC50

- COCC1CN(c2ncccn2)CC2(CCN(C(=O)c3ccc(OCCC(C)C)c(OC)c3)CC2)O1 (stereo not shown) [Compound 276]: < 2 µM
- COc1cc(C(=O)N2CCC3(CC2)CN(CC(F)F)C(c2ccccc2)CO3)ccc1OC(C)C (stereo not shown) [Compound 100]: < 2 µM
- Cc1noc(C2CN(CC(F)(F)F)CC3(CCN(C(=O)c4ccc(OC(C)C)c(C)c4)CC3)O2)n1 (stereo not shown) [Compound 149]: 2 to 5 µM
- Cc1cc(C(=O)N2CCC3(CC2)CN(CC(F)(F)F)CC(c2ccccc2)O3)ccc1OCCCO (stereo not shown) [Compound 117]: < 2 µM

---

target: human NaV subtype, like NaV 1.7 (Homo sapiens, UniProt Q15858)
protocol_summary: E-VIPR optical membrane potential assay with electrical stimulation
Format: cell-based
settings: active against one or more sodium channels; assay and NaV subtype not specified for Table 3; read-out: IC50 Binned Activity Data
pIC50: −log10 of the molar value.
The molecules listed here are annotated with their pIC50.
observed_property: pIC50

* CC#CCN1CC(CC)OC2(CCN(C(=O)c3ccc(OC)c(C)c3)CC2)C1 (stereo not shown) | < 5.30
* CC(C)(O)c1ccc(C(=O)N2CCC3(CC2)CN(CC(F)F)CC(c2ccccn2)O3)cc1F (stereo not shown) | 5.30 to 5.70
* Cc1cc(C(=O)N2CCC3(CC2)CNCC(c2ccccc2)O3)ccc1OC(C)C (stereo not shown) | < 5.30
* Cc1cnc(C2CN(C(C)(C)C)CC3(CCN(C(=O)c4ccc(OC(C)C)c(C)c4)CC3)O2)o1 (stereo not shown) | > 5.70
* CCS(=O)(=O)c1ccc(C(=O)N2CCC3(CC2)CN(CC(F)(F)F)CC(c2ccccc2)O3)cc1C (stereo not shown) | > 5.70
* COCC1CN(c2cccc(C(F)(F)F)c2)CC2(CCN(C(=O)c3ccc(C4(O)CCC4)cc3)CC2)O1 (stereo not shown) | > 5.70
* COCC1CN(c2ncccn2)CC2(CCN(C(=O)c3ccc(C(C)(C)O)c(C)c3)CC2)O1 (stereo not shown) | 5.30 to 5.70
* CCN1CC(c2ccccc2)OC2(CCN(C(=O)c3ccc(OC(C)C)c(C)c3)CC2)C1 (stereo not shown) | > 5.70
* CC(C)Oc1ccc(C(=O)N2CCC3(CC2)CN(CC(F)F)CC(c2ccccc2F)O3)cc1F (stereo not shown) | > 5.70
* Cc1cc(C(=O)N2CCC3(CC2)CN(CC(F)F)CC(c2ccc(F)cc2)O3)ccc1OC(C)C (stereo not shown) | > 5.70

---

target: human NaV subtype, like NaV 1.7 (Homo sapiens, UniProt Q15858)
protocol_summary: E-VIPR optical membrane potential assay with electrical stimulation
Assay type: cell-based
settings: active against one or more sodium channels; assay and NaV subtype not specified for Table 3; read-out: IC50 Binned Activity Data
pIC50: −log10 of the molar value.
The molecules listed here are annotated with their pIC50.
observed_property: pIC50

- CC#CCN1CC(CC)OC2(CCN(C(=O)c3ccc(OC(C)C)c(C)c3)CC2)C1 (centres unmarked) [Compound 248]: > 5.70
- Cc1cc(C(=O)N2CCC3(CC2)CN(CC(F)F)CC(c2ccccc2F)O3)ccc1OC(C)C (centres unmarked) [Compound 44]: > 5.70
- COCC1CN(c2ncccn2)CC2(CCN(C(=O)c3ccc(OC(C)C)cc3)CC2)O1 (centres unmarked) [Compound 136]: 5.30 to 5.70
- COCC1CN(C2CCCCCC2)CC2(CCN(C(=O)c3ccc(OC(C)C)c(C)c3)CC2)O1 (centres unmarked) [Compound 201]: > 5.70
- COCC1CN(C2CCC(F)(F)CC2)CC2(CCN(C(=O)c3ccc(OC(C)C)c(C)c3)CC2)O1 (centres unmarked) [Compound 220]: > 5.70
- O=C(c1cc(Cl)cc(Cl)c1)N1CCC2(CC1)CN(CC(F)(F)F)CC(c1ccccc1)O2 (centres unmarked) [Compound 118]: < 5.30
- COCC1CN(CC(C)=O)CC2(CCN(C(=O)c3ccc(OC(C)C)c(C)c3)CC2)O1 (centres unmarked) [Compound 113]: < 5.30
- Cc1cc(C(=O)N2CCC3(CC2)CN(CC(F)(F)F)CC(c2ccccc2)O3)ccc1OC(C)C (centres unmarked) [Compound 301]: > 5.70

---

target: human NaV subtype, like NaV 1.7 (Homo sapiens, UniProt Q15858)
protocol_summary: E-VIPR optical membrane potential assay with electrical stimulation
Format: cell-based
settings: active against one or more sodium channels; assay and NaV subtype not specified for Table 3; read-out: IC50 Binned Activity Data
The compounds listed here are annotated with their IC50.
observed_property: IC50

- CCC1CN(C(C)(C)C)CC2(CCN(C(=O)c3ccc(OC(C)C)c(C)c3)CC2)O1 (centres unmarked): < 2000 nM
- COCC1CN(c2ccnc(C)c2)CC2(CCN(C(=O)c3ccc(OC(C)C)c(C)c3)CC2)O1 (centres unmarked): > 5000 nM
- COc1cc(C(=O)N2CCC3(CC2)CN(CC(F)F)CC(c2ccccn2)O3)cc(F)c1OC(C)C (centres unmarked): < 2000 nM
- COCC1CN(CCSC)CC2(CCN(C(=O)c3ccc(OC(C)C)c(C)c3)CC2)O1 (centres unmarked): < 2000 nM
- Cc1cc(C(=O)N2CCC3(CC2)CN(CC(F)(F)F)CC(c2ccccc2)O3)ccc1S(C)(=O)=O (centres unmarked): < 2000 nM
- COCC1CN(CC(=O)C(C)(C)C)CC2(CCN(C(=O)c3ccc(OC(C)C)c(C)c3)CC2)O1 (centres unmarked): < 2000 nM
- CC(C)(O)Cc1ccc(C(=O)N2CCC3(CC2)CN(CC(F)(F)F)CC(c2ccccc2)O3)cc1F (centres unmarked): 2000 to 5000 nM
- Cc1cnc(C2CN(CC(F)(F)F)CC3(CCN(C(=O)c4ccc(OC(C)C)c(C)c4)CC3)O2)o1 (centres unmarked): < 2000 nM
- CC#CCN1CC(CF)OC2(CCN(C(=O)c3ccc(OC(C)C)c(C)c3)CC2)C1 (centres unmarked): > 5000 nM
- COCC1CN(CC(F)F)CC2(CCN(C(=O)c3ccc(OC(C)C)c(C)c3)CC2)O1 (centres unmarked): < 2000 nM
- CCN1CC(c2ccc(F)cc2)OC2(CCN(C(=O)c3ccc(OC(C)C)c(F)c3)CC2)C1 (centres unmarked): < 2000 nM

---

target: human NaV subtype, like NaV 1.7 (Homo sapiens)
protocol_summary: E-VIPR optical membrane potential assay with electrical stimulation
Type: cell-based
settings: active against one or more sodium channels; assay and NaV subtype not specified for Table 3; read-out: IC50 Binned Activity Data
pIC50: −log10 of the molar value.
observed_property: pIC50

* O=C(c1ccc(C(F)(F)F)cn1)N1CCC2(CC1)CN(CC(F)F)CC(c1ccccc1)O2 (centres unmarked) | < 5.30
* Cc1nc(C(=O)N2CCC3(CC2)CN(CC(F)F)CC(c2ccccc2)O3)ccc1C#N (centres unmarked) | < 5.30
* CCCOCCN1CC(COC)OC2(CCN(C(=O)c3ccc(OC(C)C)c(C)c3)CC2)C1 (centres unmarked) | > 5.70
* CC#CCN1CC(CC)OC2(CCN(C(=O)c3ccc(C(C)(C)C)c(OC)c3)CC2)C1 (centres unmarked) | > 5.70
* CC#CCN1CC(CC)OC2(CCN(C(=O)c3ccc(OC(C)C)c(C)n3)CC2)C1 (centres unmarked) | 5.30 to 5.70
